MEASURED TARGET: T1, cynomolgus monkey CD40 on cells (cynomolgus monkey, UniProt G7PG38 21-278)
T1 construct: also called cyCD40; CHO-K1/cyCD40
T1 sequence (G7PG38 entry or part of it limits assumed): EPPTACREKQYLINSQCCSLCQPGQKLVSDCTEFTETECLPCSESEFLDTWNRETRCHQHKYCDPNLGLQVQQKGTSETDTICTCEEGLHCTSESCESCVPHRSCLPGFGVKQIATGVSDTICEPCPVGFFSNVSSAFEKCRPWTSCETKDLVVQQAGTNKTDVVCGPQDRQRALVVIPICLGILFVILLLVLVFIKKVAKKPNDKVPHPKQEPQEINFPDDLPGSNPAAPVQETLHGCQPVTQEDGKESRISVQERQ
ASSAY INFO: FACS, CHO-K1/cyCD40 cells
Could you please mark criterion met for values of EC50 below 5 nM and criterion not met for values at or above it?

PR006492 (antibody, human IgG1, kappa, V domains shown, PR003379 variant L:N92E; human IgG1 L234A, L235A, G237A) VH: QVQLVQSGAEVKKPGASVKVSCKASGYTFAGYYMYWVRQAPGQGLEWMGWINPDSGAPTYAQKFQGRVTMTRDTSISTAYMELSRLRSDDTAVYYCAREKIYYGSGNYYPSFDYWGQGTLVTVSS VL: DIQLTQSPSFLSASVGDRVTITCRASQGISSYLAWYQQKPGKAPKLLIYAASTLQSGVPSRFSGSGSGTEFTLTISSLQPEDFATYYCQQLESYPWTFGQGTKVEIKR = criterion not met
PR001306 (CDX-1140) (antibody, human IgG2, kappa, V domains shown, CD40 positive control antibody) VH: QVQLVESGGGVVQPGKSLRLSCAASGFTFSSNGIHWVRQAPGKGLEWVAVIWSDGSNKFYADSVKGRFTISRDNSKNTLYLQMNSLRAEDTAVYYCARASGSGSYYNFFDYWGQGTLVTVSS VL: EIVMTQSPATLSVSPGERATLSCRASQSVRSNLAWYQQKPGQAPRLLIYGASTRATGIPARFSGSGSGTEFTLTINSLQSEDFAVYYCQQHNKWITFGQGTRLEIKR = criterion not met
PR006509 (antibody, human IgG1, kappa, V domains shown, PR003379 variant L:S93L; human IgG1 L234A, L235A, G237A) VH: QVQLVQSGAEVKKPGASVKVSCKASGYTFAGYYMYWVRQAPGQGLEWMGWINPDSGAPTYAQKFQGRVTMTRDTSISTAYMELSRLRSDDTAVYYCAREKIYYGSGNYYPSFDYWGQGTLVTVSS VL: DIQLTQSPSFLSASVGDRVTITCRASQGISSYLAWYQQKPGKAPKLLIYAASTLQSGVPSRFSGSGSGTEFTLTISSLQPEDFATYYCQQLNLYPWTFGQGTKVEIKR = criterion met
PR006510 (antibody, human IgG1, kappa, V domains shown, PR003379 variant L:S93R; human IgG1 L234A, L235A, G237A) VH: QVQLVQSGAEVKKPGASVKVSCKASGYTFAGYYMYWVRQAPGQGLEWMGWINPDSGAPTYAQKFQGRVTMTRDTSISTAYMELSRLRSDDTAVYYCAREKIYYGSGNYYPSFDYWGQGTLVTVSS VL: DIQLTQSPSFLSASVGDRVTITCRASQGISSYLAWYQQKPGKAPKLLIYAASTLQSGVPSRFSGSGSGTEFTLTISSLQPEDFATYYCQQLNRYPWTFGQGTKVEIKR = criterion met
PR006495 (antibody, human IgG1, kappa, V domains shown, PR003379 variant L:N92A; human IgG1 L234A, L235A, G237A) VH: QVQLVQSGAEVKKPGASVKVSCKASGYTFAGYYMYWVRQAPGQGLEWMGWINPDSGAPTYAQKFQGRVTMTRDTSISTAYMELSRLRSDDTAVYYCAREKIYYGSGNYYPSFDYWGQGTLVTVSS VL: DIQLTQSPSFLSASVGDRVTITCRASQGISSYLAWYQQKPGKAPKLLIYAASTLQSGVPSRFSGSGSGTEFTLTISSLQPEDFATYYCQQLASYPWTFGQGTKVEIKR = criterion met

Continue with the binder presented below.
Query string: Strictly below 5 nM: is that where EC50 of PR006511 (antibody, human IgG1, kappa, V domains shown, PR003379 variant L:S93N; human IgG1 L234A, L235A, G237A) VH: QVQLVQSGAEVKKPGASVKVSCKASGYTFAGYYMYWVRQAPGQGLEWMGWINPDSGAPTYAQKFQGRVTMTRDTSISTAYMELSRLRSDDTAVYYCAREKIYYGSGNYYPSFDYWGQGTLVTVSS VL: DIQLTQSPSFLSASVGDRVTITCRASQGISSYLAWYQQKPGKAPKLLIYAASTLQSGVPSRFSGSGSGTEFTLTISSLQPEDFATYYCQQLNNYPWTFGQGTKVEIKR sits?
Result string: criterion met
